assay: yeast display, Sf9 membrane polyspecificity reagent, FACS + sequencing; frameworks hold sequencing errors

- sequence input: "QVLLVESGGGLVQAGGSLRLSCAASGSTFWRNAMGWYRQATGKERELVAVISGSGSRTFYADSVKGRFTISRDNAKNTVNLQMNSLKPEDTAVYYCAADARQYQGFDYWGQGTQVTVSS"
  polyreactivity (PSR sort gate): "high polyreactivity"
- sequence input: "QVQLVESGGGLVQAGGSLRLSCAASGFTIRSYVMGWYRQAPGKEREFVAAISYRGGGTNYADSVKGRFTISRDNAKNTVYLQMNSLKPEDTAVYYCNALVYDQYGYYHYYLRNGGYYWGQGTQVTVSS"
  polyreactivity (PSR sort gate): "high polyreactivity"
- sequence input: "QVQLVESGGGLVQAGGSLRLSCADSGITLYEYAMGWYRKAPGKERELVAAISTSGGRTRYADSVKGRFTISRDNAKNTVYLQMNSLKPEDTAVYYCAASGFVQISNPRRDYWGLGTQVTVSS"
  polyreactivity (PSR sort gate): "high polyreactivity"
- sequence input: "QVQLVESGGGLVQAGGSLRLSCAASGNTFGRYAMGWYRQAPGKERELVASIRGSSVRTFYADSVKGRFTISRDNAKNTVYLQMNSLKPEDTAVYYCAAEVYRYYATGYGYWGQGTQVTVSS"
  polyreactivity (PSR sort gate): "high polyreactivity"

---

test: yeast display, Sf9 membrane polyspecificity reagent, FACS + sequencing; frameworks hold sequencing errors

- sequence input: "QVQLVESGGGLVQAGGSLRLSCAASGRIFGLYAMGWYRHAPGKEREFVAANNWDGGSTFYADSVKGRFTISRDNAKNTVYLQMNSLKPEDTAVYSCAADVYSYVSYSTYVSVFTYDYWGQGTQVTVSS"
  polyreactivity (PSR sort gate): "low polyreactivity"
- sequence input: "QVQLVESGGGLVQAGGSLRLSCAASGRTFRWNAMGWSRQAPGKERELVASISSGGRTNYADSVKGRFTLSRDNAKNTVYLQMNSLKPEDTAVYYCAKRVSWPQLYDYWGQGTQVTVSS"
  polyreactivity (PSR sort gate): "high polyreactivity"
- sequence input: "QVQLVESGGGLVQAGGSLRLSCAASGITFSGNAMGWYRQAPGKERELVATISQSGGSTYYADSVKGRFTISRDNAKNTVYLQMNSLKPEDTAVYYCNVNLQGRYSDKYDYWGQGTQVTVSS"
  polyreactivity (PSR sort gate): "high polyreactivity"
- sequence input: "QVQLVESGGGLVQAGGSLRLSCAASGYTFSDYAMGWYRQAPGKERELVAAISWSGGSTYYADSVKGRFTISRDNAKNTVYLQMNSLKPEDTAVYYCAAKWYAPDLLYYYWGQGTQVTVSS"
  polyreactivity (PSR sort gate): "low polyreactivity"
- sequence input: "QVQLVESGGGLVQAGGSLRLRCAASANTFGFYAMGWYRQAPGKERELVAGITSGDSTYYADSVKGRFTISRDNAKNTVYLQMNSLKPEDSAVYYCATAPYVSSRRYGPYEYWGQGTQVTVSS"
  polyreactivity (PSR sort gate): "low polyreactivity"
- sequence input: "QVQLVESGGGLVQAGGSLRLSCAASGRTFPPYAMGWYRQAPGKERELVAANSWSGGSTYYADSVKGRFTISRDNAKNTVYLQMNSLKPEDTAVYYCAKATRDRGRYYYWGQGTQVTVSS"
  polyreactivity (PSR sort gate): "high polyreactivity"
- sequence input: "QVQLVESGGGLVQAGGSLRLSCAASGSTIDWYGMGWYRQAPGKERELVAAINFSDGSTYYADSVKGRFTISRDNAKNTVYLQMNSLKPEDTAVYYCAAYTPSYGGRDYWGQGTQVTVSS"
  polyreactivity (PSR sort gate): "low polyreactivity"
- sequence input: "QVQLVESGGGLVQAGGSLRLSCAASGRTFWDYAMGWYIQAPGKEREFVAAINTSGGRTYYADSVKGRFTISRDNAKNTVYLQMNSLKPEDTAVYYCAARTRDRAYDSWGQGTQVTVSS"
  polyreactivity (PSR sort gate): "high polyreactivity"
- sequence input: "QVQLVESGGGLVQAGGSLRLSCAASGRIFRFNAMGWYRQAPGKERELVAAITGSGGTTFYADSVKGRFTLSRDNAKNTVYLQMNSLKPEDTAVYYCNTLGNWRPVYNQPRYEYWGQGTQVTVSS"
  polyreactivity (PSR sort gate): "high polyreactivity"
- sequence input: "QVQLVDSGGGLVQAGGSLRLSCAASGSTFRLYAMGWYRQAPGKERELVAAISQRGGSTYYADSVKGRFTISRDNAKNTVYLQKNSLKPEDTAVYYCNTDWYRKWGKPYYYWGQGTQVTVSS"
  polyreactivity (PSR sort gate): "high polyreactivity"
- sequence input: "QVQLVESGGGLVQAGGSLRLSCPASGSTFGPYAMGWYRQAPGKERELVATISGSGSSTYYADSVKGRFTISRDNAKNTVDLQMNSLKPEDTAFYYCATDLYFDLRYDYWGQGTQVTVSS"
  polyreactivity (PSR sort gate): "low polyreactivity"

---

test: yeast display, Sf9 membrane polyspecificity reagent, FACS + sequencing; frameworks hold sequencing errors

- sequence input: "QVQLVESGGGLVQAGGSLRLSCAASGSIFYAYAMGWYRQAPGKERELVAAISASGGSTYYADSVKGRFTISRDNAKNTVYLQMNSLKPEDTAVYYCAALTYSTYQTAYRRYPKNKYWGQGTQVTVSS"
  polyreactivity (PSR sort gate): "high polyreactivity"
- sequence input: "QVQLVESGGGLVQAGGSLRLSCAASGRIFSYYTMGWYRQAPGKERELVAAISSGGSTNYADSVKGRFTISRDNAKNTVYLQMNSLKPEDTAVYYCAVRSGRRNYDRPAFGYWGQGTQVTVSS"
  polyreactivity (PSR sort gate): "high polyreactivity"
- sequence input: "QVQLVESGGGLVQAGGSLRLSCAASGSTFYYYAMGWYRPAPGKEREFVASISSRGTSTYYADSVKGRFTISRDNAKNTVYIQMISLKPEDTAVDYGAARVWGPTRAYDYWGQGTQVTVSS"
  polyreactivity (PSR sort gate): "high polyreactivity"
- sequence input: "QVQLVESGGGLVQAGGSLRLSCSASGLTFYSYTKGWYRQAPGKERELVAAISYSGGNTYYADSVKGRFTISRDNAKNTVYLQMNSLKQEDTAVYYCNAYFRWYWLIEYDYWGQGTQVTVSS"
  polyreactivity (PSR sort gate): "high polyreactivity"
- sequence input: "QVQLVESGGGLVQAGGSLRLSCAASGSTFSTNAMGWYRQAPGKERELVARISAGRTNYADSVKGRFTISRDNAKNTVYLQMNSLKPEDTAVYYCNADYQYNRYSRVVGGHYYWGQGTQVTVSS"
  polyreactivity (PSR sort gate): "low polyreactivity"
- sequence input: "QVQLQESGGRLVQSCGTLRLSCAASGTITVLYKIGRFRQAPGKEREFVASINYGTSTYYADSVKGRFTVSRDSAKNTVYLQMNSLKPEDTAVYYCAAAYRWQDVYRYWVQGTQVTVSS"
  polyreactivity (PSR sort gate): "low polyreactivity"
- sequence input: "QVQLVESGGGLVQAGGSLRLSCAASGFTFAPNAMGWYRQAPGKEREFVAVITYRSTSTFYADSVKGRFTISRDNAKNTVYLQMNSLKPEDTAVYYCNAKYLWYGRYNYWGQGTQVTVSS"
  polyreactivity (PSR sort gate): "high polyreactivity"
- sequence input: "QVQLVESGGGLVQAGGSLRLSCAASGSIFAKNAMGWYRQAPGKERELVAGIDFSGGSTYSADSVKGRFTISRDNAQNTVYLQMNSLKPEDTAVDYCAADWAYKYELDYWGQGTQVTVSS"
  polyreactivity (PSR sort gate): "low polyreactivity"
- sequence input: "QVQLVESGGGLVQAGCSLRLSCAASGSIFTNYGMGWYRQAPGKERELVADIRARSGSTYYADSVKGRFTISRDNAKNTVYLQMNSLKPEDTAVYYCAARRTSYRFDYSAGYRYGYWGQGTQVTVSS"
  polyreactivity (PSR sort gate): "high polyreactivity"
- sequence input: "QGQLVESGGGLVQAGGSLRLSSAASGSTFARYAMGWYRQAPGKERELVAVIRSGGSTNYADSVKGRFTISRDNAKNTVYLQMNSLKPEDTAGAADLWTLHRWATYGYWGQGTQVTVSS"
  polyreactivity (PSR sort gate): "low polyreactivity"
- sequence input: "QVQLVESGGGLVQAGGSLRLSCAASGSILPGNAMGWSRQAPGKERELVAAITYSGGSTYADSVKGRFTISRDNAKNTVYLQINSLKPEDTAVYYCNADFIDPSVYDYNYWGQGTQVTVSS"
  polyreactivity (PSR sort gate): "low polyreactivity"

---

assay: yeast display, Sf9 membrane polyspecificity reagent, FACS + sequencing; frameworks hold sequencing errors
readout: polyreactivity (PSR sort gate)

- sequence input: "QVHLVESGGGLVQAGGSLRLSCAASGSIFSWNAMGWYRQAPGKERELVAAISKRGTSTYYADSVKGRFTISRDNAKNTVYLQMNSLKPEDTAVYYCAARAQSYPYLSFDYWGQGTQVTVSS"
  result: "high polyreactivity"
- sequence input: "QVQLVESGGGLVQAGGSLRLSCAASGFIFYRYAMGWYRQAPGKERELVAAISSSGGSTYYADSVKGRFTISRDNAKNTVYFQMNSLKPEDTAVYYCNKRPQQYRPGYDYWGQGTQVTVSS"
  result: "high polyreactivity"
- sequence input: "QVQLGESGGGLVQAGGSLRLICAASGSTTPGNAMGWYRQAPGKQREFDADINSGGGTNYADSVKGRFTISRDNAKNNVYLQMNSLKPEDTAVYYCAKGYRRSFIGYWYLKYGYWGQGTQVTVSS"
  result: "high polyreactivity"
- sequence input: "QVQLVESGGGLVQAGGSLRLSSAASGRIFGVYAMGWYRQAPGKERELVAAITRSGGSTYYADSVKGRFTISRDNAKNTDYLQMKSLKPEDTAVYYCNRDFRGLAYSDRYDYWGQVTQVTVSS"
  result: "low polyreactivity"
- sequence input: "QVQLVESGGGLVQAGGSLRLSCAASGRTFRQYALGWYRQAPGKEWELVATISGGGGNTYYADSVKGRFTISRDNAKKTVYLQMNSLKPEDTAFYYCAARRRDRPVRGYDYWGQGTQVTVSS"
  result: "high polyreactivity"
- sequence input: "QVQLVESGGGLVQAGGSLRLSCAASGSTFVKNTMGWYRQAPGKERELVAAISSRGGSTYYADSVKGRFTISRDNAKNTVYLQMNSLKPEDTAVYYCNALGLYSRYQQGEYDYWGQGTQVTVSS"
  result: "low polyreactivity"
- sequence input: "QVQLVESGGGLVQAGGSLRLSCAASGITFWTYAMGWYRQAPGKERELVAAISKSGGSTYYADSVKGRFTISRDNAKNTVYLQMNSLKPEDTAVYYCAAKGLRYRDIDYDYWGQGTQVTVSS"
  result: "low polyreactivity"
- sequence input: "QVQLVESGGGLVQAGGSLRLISAASGRTFRVYAIGWYRPAPGKEREFVATISVRGGSTYYADSVKGRFTISRDNAKNTVYLQMNSLKPEDTAFYYCAADSYPYVYALYDYWGQGTQVTVSS"
  result: "low polyreactivity"
- sequence input: "QVQLVESGGGLVQAGGSLRLSCAASGSTFGRNAMGWYRQAPGKERELVASISSGGSTYYADSVKGRFTISRDNAKNTVYLQMNSLKPEDTAVYYCARRAYQNWYNYWGQGTQVTVSS"
  result: "high polyreactivity"
- sequence input: "QVQLVESGGGLVQAGGRLRLSCAASGRTFGYYTMGWYRQAPGKERELVATIRWSGGSTYADSVKGRFTISRDNANNTVYLQMNSLKPEDTAVYYCARRLFSWGAPFGYWGQGTQVTVSS"
  result: "high polyreactivity"
- sequence input: "QVQLVESGGGLVQAGGSLRLSCAASGSIFPYYTMGGYRQAPGKERELVAVISSGGSTNYAVSVKGRFTISRDNAKNTVYLQMNSLKPEDTAVYYCNARRYWLRYDYWGLGTQVTVSS"
  result: "low polyreactivity"
